- STUDY TARGET: DARPin A5
- EXPERIMENT NOTES: ITC; target proteins titrated to constant concentrations of DARPin; 50 mM HEPES, pH 7.4, 150 mM NaCl, 0.5 mM TCEP; AB hetero-association model (SEDPHAT); temperatures not shown
READOUT KIND: Kd
Answer as a quantity: numeral, then unit.

Please look up its Kd: p63 Sterile α-motif (SAM) domain (domain or fragment) PPYPTDCSIVSFLARLGCSSCLDYFTTQGLTTIYQIEHYSMDDLASLKIPEQFRHAIWKGILDHRQL 16 nM
